Hello, the source for this data is PubChem BioAssay (NCI), in case you need it.

Test system: RXF 393 renal
Assay: NCI tumour cell line growth inhibition, 48 h
Measured TGI by item

O=S(=O)(Nc1ccc(F)cc1F)c1ccc(-c2cnc(C3CC3)o2)cc1 ... 7.05 µM
Cn1c(=O)oc2cc(C(O)CN3CCN(Cc4ccccn4)CC3)c(Cl)cc21 (stereo not given) ... > 100 µM
Nc1nc(NCC2(CO)CC2)cc(=O)[nH]1 ... > 100 µM
C#CC(C)(C)OC(=O)C(=[N+]=[N-])C(C)=O ... > 10 µM
Cc1c(C)n(-c2ccccc2)c2nc(S(C)(=O)=O)nc(S(C)(=O)=O)c12 ... 2.75 µM

Quick check: TGI of CNS(=O)(=O)NNS(=O)(=O)c1ccc(Br)cc1 ?
> 100 µM

Quick check: TGI of COC(=O)[C@H](Cc1c[nH]c2ccccc12)NC(=O)c1ccc(CNC(=O)/C(C)=C/c2ccccc2)cc1 ?
7.78 µM

Quick check: TGI of N=C(N)c1ccc2nc(-c3cc(CC(=O)N[C@@H](CC(=O)O)C(=O)O)cc(-c4cc(S(N)(=O)=O)ccc4O)c3O)[nH]c2c1 ?
> 100 µM

Quick check: TGI of CC(C)N(C(=O)C12C3C4C1(I)C1C2C3(I)C41C(=O)N(C(C)C)C(C)C)C(C)C (stereo not given) ?
> 100 µM

Quick check: TGI of Cc1ccc(C)c(N=C2NC(=O)C(CC(=O)Nc3ccc(Cl)cc3Cl)S2)c1 (stereo not given) ?
> 100 µM
